target: Dual specificity protein phosphatase 6 (Homo sapiens) (UniProt Q16828); test: Primary imaging screen for DUSP6 inhibitors that restore phospho-Erk in transfected HeLa cells, chemical complementation (AID 609); conditions: HeLa MKP-3 transfected, phospho-Erk imaging KS statistic; at 10 µM; stronger effect = higher value; cells stimulated with TPA for 15 min;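 also: phospho-Erk level distribution per well compared with pooled transfected vehicle control wells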
Sequence (Q16828 whole entry, looked up): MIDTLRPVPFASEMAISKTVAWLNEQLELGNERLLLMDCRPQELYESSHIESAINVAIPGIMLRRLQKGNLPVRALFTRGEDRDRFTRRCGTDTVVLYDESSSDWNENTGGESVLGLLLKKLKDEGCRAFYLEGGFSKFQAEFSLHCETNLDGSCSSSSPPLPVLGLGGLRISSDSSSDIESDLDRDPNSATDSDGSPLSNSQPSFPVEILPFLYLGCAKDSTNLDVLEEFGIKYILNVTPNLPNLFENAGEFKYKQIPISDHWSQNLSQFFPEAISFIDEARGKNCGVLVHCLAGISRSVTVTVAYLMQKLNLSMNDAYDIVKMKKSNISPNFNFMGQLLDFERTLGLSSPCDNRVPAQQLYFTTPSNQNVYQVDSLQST
For each entry below, report its inhibition value.
Answers are plain numbers, in %.

CCCCCOc1ccc(Cl)cc1CN1CCOCC1: 11.3
Cc1cccc(OCC(=O)NCC(=O)n2nc(C)cc2C)c1: -7.79
CCOC(=O)c1cc(CC)sc1NC(=O)C1CC1: 1.75
COC(=O)Nc1nc2ccc(C(=O)c3ccccc3)cc2[nH]1: 21.2
CC(=O)[C@@]1(O)CC[C@H]2[C@@H]3C[C@H](C)C4=CC(=O)C=C[C@]4(C)[C@@]3(F)[C@@H](O)C[C@@]21C: 7.39
Cc1cn([C@H]2C=C[C@@H](CO)O2)c(=O)[nH]c1=O: 7.39
O=C(O)CCC(=O)Nc1ccc(S(=O)(=O)Nc2nccs2)cc1: 1.38
CC1(C)CC(=O)C=C(NCCO)C1: 20.8

Quick one: give me inhibition for each item below, same order please.
1. C=C(Br)CN1CCN(CC(=C)Br)CC1
2. CCCCNC(=O)NS(=O)(=O)c1ccc(C)cc1
3. CCOC(=O)c1cc2c(=O)n3cccc(C)c3nc2n(CCc2ccccc2)c1=N
4. CCCNCC(O)COc1ccccc1C(=O)CCc1ccccc1 (stereo unspecified)

# output
1: 17; 2: 9.37; 3: -16.8; 4: -4.44
